Each recorded value in this set is attributed to paper PMC7722354.

# Tested on: M. tb, strain H37Rv
# Protocol text: MABA minimum inhibitory concentration assay (aerobic)
# Type: cell-based, Mycobacterium tuberculosis
# Cond: Mycobacterium tuberculosis, H37RV, aerobic; read-out: MIC MABA

Molecule	MIC / µM
CC1(COc2ccc(-c3ccc(F)nc3F)cn2)CCn2cc([N+](=O)[O-])nc2O1 (centres unmarked)	1
CC1(COc2ccc(-c3ccc(OC(F)(F)F)cc3)cn2)CCn2cc([N+](=O)[O-])nc2O1 (centres unmarked)	0.13
CC1(CN2CCN(c3ccc(F)cc3)CC2)CCn2cc([N+](=O)[O-])nc2O1 (centres unmarked)	0.34
CC1(COc2cccc(-c3ccc(F)cc3)n2)CCn2cc([N+](=O)[O-])nc2O1 (centres unmarked)	0.94
O=[N+]([O-])c1cn2c(n1)OC(COc1cccc(-c3ccc(F)cc3)n1)CC2 (centres unmarked)	1.7
CC1(COc2ccc(-c3ccc(F)cc3F)nc2)CCn2cc([N+](=O)[O-])nc2O1 (centres unmarked)	0.4
O=[N+]([O-])c1cn2c(n1)OC(COc1ccc(-c3ccc(F)cc3F)cn1)CC2 (centres unmarked)	0.1
O=[N+]([O-])c1cn2c(n1)OC(CN1CCC(c3ccc(F)cc3)CC1)CC2 (centres unmarked)	2.1
